Origin of values: PubChem BioAssay

- target or test system: Alpha-bungarotoxin (Bungarus multicinctus) (UniProt P60615)
- Sequence (P60615 whole entry, looked up): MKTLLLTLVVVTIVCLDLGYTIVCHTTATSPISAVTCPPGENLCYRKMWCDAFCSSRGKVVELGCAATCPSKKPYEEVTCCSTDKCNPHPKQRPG
- assay overview: compounds binding labelled alpha-BTX control protein – biochemical, small-molecule microarray, Alexa647 label, 635/667 nm fluorescence, artefact control for SMM control protein annotation, profiling panel (AID 1117)
- particulars: alpha-BTX-A647 binding fluorescence, higher = more signal
# Lookup of reported composite z-score keyed by entry
Number, no unit, nothing else.

Examples from the recorded data:
# query smiles, target or test system, composite z-score
records = [
    ("O=C1[C@@]23C=C(Br)[C@H](C[C@@H]2COC3)[C@]12CO2", "Alpha-bungarotoxin (Bungarus multicinctus) (UniProt P60615)", -1.5),
    ("C=CCOC(=O)[C@H]1[C@@H]2C(=O)O[C@@H](c3ccccc3)[C@@H](c3ccccc3)N2[C@@H](c2ccc(OCCOC(=O)[C@@H]3C[C@@H]4C(=O)N5CCC[C@H]5C(=O)N4[C@@H]3c3cccc(OCCO)c3)cc2)[C@]12C(=O)Nc1ccc(I)cc12", "Alpha-bungarotoxin (Bungarus multicinctus) (UniProt P60615)", 1.39),
]

Please find the next compound below.
# query: composite z-score of entry `C=C(CCCC)/C(=C/C[C@@H](OC(C)=O)c1cccc(OCCO)c1)c1cnc2ccccc2c1` 1.07

----------
- target or test system: E3 ubiquitin-protein ligase XIAP (Homo sapiens)
- assay overview: small molecules binding XIAP protein – biophysical, small-molecule microarray, fluorescence 635 nm, primary screen (AID 1181);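 also: score merges 667 nm emission and signal to noise over triplicate slides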
- particulars: higher = more signal
attribute measured: composite z-score

# compound, target or test system, val
measured = [
    ("CC(=O)NCCCC[C@@H]1NC(=O)[C@H]2C[C@@H](C(=O)O)[C@@H](c3ccc(O)cc3)N2C1=O", "E3 ubiquitin-protein ligase XIAP (Homo sapiens)", 0.5),
    ("[N-]=[N+]=NCc1ccccc1[C@@H]1OC(c2ccc(OCCCO)cc2)=N[C@]1(CCS(=O)(=O)c1ccccc1)C(=O)N1CCOCC1", "E3 ubiquitin-protein ligase XIAP (Homo sapiens)", 0.0512),
    ("[N-]=[N+]=Nc1ccccc1C[C@]1(C(=O)NCc2ccccc2)N=C(c2ccc(OCCCO)cc2)O[C@H]1c1ccccc1N=[N+]=[N-]", "E3 ubiquitin-protein ligase XIAP (Homo sapiens)", 0.0097),
    ("COCCCNC(=O)[C@@]1(CCS(=O)(=O)c2ccccc2)N=C(c2ccc(OCCCO)cc2)O[C@H]1c1ccccc1N=[N+]=[N-]", "E3 ubiquitin-protein ligase XIAP (Homo sapiens)", -0.005),
    ("COCCOC(=O)N1C(=O)[C@@]2(c3ccccc31)[C@H](c1ccc(OCCO)cc1)N1[C@H](c3ccccc3)[C@H](c3ccccc3)OC(=O)[C@H]1[C@@H]2C(=O)N1CCc2cc(OC)c(OC)cc2C1", "E3 ubiquitin-protein ligase XIAP (Homo sapiens)", -0.153),
]

Notebook: pull reported composite z-score for E3 ubiquitin-protein ligase XIAP (Homo sapiens), entry O=C1C2C=CC(C(O)c3ccc(-c4ccccc4)s3)N(Nc3ccccc3)C2C(=O)N1c1ccccc1 (configuration not stated) 0.59

Now consider `CC[C@@H]1C=C(C(=O)O)[C@H](c2cccc3ccccc23)N1S(=O)(=O)c1ccc(C)cc1` . -0.359

----------
- assay overview: probe aDKK1 binding to arrayed compounds – biochemical, biotinylated probe, 635/667 nm fluorescence, primary screen (AID 1099);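 also: score merges 667nm spot fluorescence with signal to noise across triplicate slides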
- particulars: small-molecule microarray, higher = more signal
# Lookup of reported composite z-score keyed by entry
Number, no unit, nothing else.

Examples from the recorded data:
# compound, attribute measured, val
data = [
    ("C=CCOC(=O)[C@H]1[C@@H]2C(=O)O[C@@H](c3ccccc3)[C@@H](c3ccccc3)N2[C@@H](c2ccc(OCCOC(=O)[C@H]3C[C@H]4C(=O)N[C@@H](CCCCN(C)C)C(=O)N4[C@H]3c3cccc(OCCO)c3)cc2)[C@]12C(=O)Nc1ccc(I)cc12", "composite z-score", -0.267),
    ("CCOC(=O)C[C@H]1[C@H](OC(=O)c2ccc(-c3ccccc3)cc2)[C@@H](NC(=O)c2ccccc2)c2cc(OCCCO)ccc2N1C(=O)c1ccc2ccccc2n1", "composite z-score", 0.32),
    ("CCCNC(=O)[C@@H]1c2ccccc2C(=O)N(Cc2ccccc2OC)[C@H]1c1ccc(CO)cc1", "composite z-score", 0.0051),
    ("CCCCCCc1nc(-c2ccc(-c3ccc(Cl)c(Cl)c3)o2)cc2c1[Si](C(C)C)(C(C)C)O[C@H]2c1ccccc1", "composite z-score", -0.294),
    ("O=C(O)[C@H](Cc1ccccc1)n1cc(-c2ccccc2)nn1", "composite z-score", -0.284),
    ("O=C1[C@@]23C=C(Br)[C@H](C[C@@H]2COC3)[C@]12CO2", "composite z-score", -0.183),
]

# query: composite z-score of entry O=C1NC(=O)C2C1C=CC(C(O)C=Cc1ccc([N+](=O)[O-])cc1)N2Nc1ccc(Cl)cc1Cl (centres undefined) 1.19

Now consider `C=C(CCCC)C(=O)CC[C@@H](OC(C)=O)c1ccc(CO)o1` . -0.269

Now consider `C=C(CCCC)C(=O)CC[C@H](OC(=O)c1cccnc1)c1ccc(OCCO)cc1` . -0.117
